Test system: Staphylococcus aureus
Assay: Antibacterial activity against tetracycline-resistant Staphylococcus aureus XU212 after 18 hrs
Type: functional
Settings: XU212, 18 h
Below: a set of entries, each annotated with reported MIC.
Write it as a number; the unit µg/mL goes unstated.

Example cases with answers are listed next.
CCCCCc1cc(O)c(C/C=C(\C)CCC=C(C)C)c(O)c1C(=O)OC ... 64
CCCCCc1cc(O)cc(O)c1 [WHILE OLIVETOL] ... 64
CCCCCc1cc(O)c2c(c1)OC(C)(CCC=C(C)C)C=C2 (stereo unspecified) [CANNABICHROMENE] ... 1
C=C(C)[C@@H]1CCC(C)=C[C@H]1c1c(O)cc(O)cc1CCCCC ... 1

As a next step, examine the compound that follows.
Ask: Bench note: what MIC did CCCCCc1cc(O)c2c(c1)OC(C)(C)c1ccc(C)cc1-2 [CANNABINOL] show?
Reply: 1
